Recorded IC50 by entry
target.under.test: IDH1 R132H (Homo sapiens, UniProt O75874, R132H)
Sequence (O75874 whole entry R132H): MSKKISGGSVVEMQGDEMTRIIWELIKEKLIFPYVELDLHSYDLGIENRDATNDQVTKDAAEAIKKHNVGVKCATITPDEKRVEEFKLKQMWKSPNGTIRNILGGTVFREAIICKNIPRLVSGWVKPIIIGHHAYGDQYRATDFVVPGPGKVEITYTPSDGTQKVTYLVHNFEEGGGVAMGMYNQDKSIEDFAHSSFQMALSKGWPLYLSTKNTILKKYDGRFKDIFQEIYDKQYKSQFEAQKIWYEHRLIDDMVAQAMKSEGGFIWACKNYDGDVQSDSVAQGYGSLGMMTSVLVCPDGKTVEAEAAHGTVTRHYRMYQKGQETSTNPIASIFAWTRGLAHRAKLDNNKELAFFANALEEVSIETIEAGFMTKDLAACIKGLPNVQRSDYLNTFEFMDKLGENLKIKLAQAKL
method.notes: In vitro assay for IDH1 R132H inhibitors (NADPH/aKG, resazurin detection)
Format: biochemical
experimental.conditions: Table 4A; 0.2 μg/ml IDH1 R132H, 50 minutes at room temperature; read-out: IC50 (uM), IDH1 R132H Inhibition
Procedure: Assays were conducted in a volume of 76 μl assay buffer (150 mM NaCl, 10 mM MgCl2, 20 mM Tris pH 7.5, 0.03% bovine serum albumin) as follows in a standard 384-well plate: To 25 ul of substrate mix (8 uM NADPH, 2 mM aKG), 1 μl of test compound was added in DMSO. […] The conversion of resazurin to resorufin was detected by fluorescent spectroscopy at Ex544 Em590 c/o 590. […]

Below, 9 compounds whose answers are already recorded.
compound: Cc1ccccc1C(C(=O)NC1CCCCC1)N(C(=O)Cc1cccs1)C(C)(C)C (stereo not shown) [Compound 69]
IC50: ≥ 100 µM
--
compound: O=C(NC1CCCCC1)C(c1ccc(F)cc1)N(C(=O)Cc1cccs1)c1cccc(F)c1 (stereo not shown) [Compound 50]
IC50: 0.1 to 1 µM
--
compound: CCCCCCCCOc1ccc(C(C(=O)NC2CCCCC2)N(C(=O)Cc2cccs2)c2cccc(F)c2)cc1 (stereo not shown) [Compound 93]
IC50: 0.1 to 1 µM
--
compound: O=C(NC1CCCCC1)C(c1ccccc1)N(C(=O)Cc1cccs1)c1ccccc1F (stereo not shown) [Compound 36]
IC50: 0.1 to 1 µM
--
compound: O=C(NC1CCCCC1)C(c1ccc(O)cc1)N(C(=O)Cc1cccs1)c1cccc(F)c1 (stereo not shown) [Compound 92]
IC50: 0.1 to 1 µM
--
compound: COc1ccc(C(C(=O)NC2CCCCC2)N(C(=O)Cc2cccs2)c2cccc(F)c2)cc1 (stereo not shown) [Compound 77]
IC50: ≥ 100 µM
--
compound: O=C(NC1CCCC1)C(c1ccccc1F)N(C(=O)Cc1cccs1)c1cccc(F)c1 (stereo not shown) [Compound 43]
IC50: 0.1 to 1 µM
--
compound: Cc1ccccc1C(C(=O)NC1CCCCC1)N(C)C(=O)Cc1cccs1 (stereo not shown) [Compound 40]
IC50: ≥ 100 µM
--
compound: COc1ccc(C(C(=O)NC2CCCC2)N(C(=O)Cc2cccs2)c2cccc(F)c2)cc1OC (stereo not shown) [Compound 19]
IC50: ≥ 100 µM

Please look at the following compound next.
// query Record lookup: for IDH1 R132H (Homo sapiens, UniProt O75874, R132H), what IC50 belongs to O=C(NC1CCCC1)C(c1cccc([N+](=O)[O-])c1)N(C(=O)Cc1cccs1)c1cccc(F)c1 (stereo not shown) [Compound 20] ?
// result ≥ 100 µM

----------
target.under.test: IDH1 R132H (Homo sapiens, UniProt O75874, R132H)
method.notes: In vitro assay for IDH1 R132H inhibitors (NADPH/aKG, resazurin detection)
Type: biochemical
experimental.conditions: Table 4A; 0.2 μg/ml IDH1 R132H, 50 minutes at room temperature; read-out: IC50 (uM), IDH1 R132H Inhibition
Recorded IC50 by entry

Below, 2 compounds whose answers are already recorded.
compound: O=C(Cc1cccs1)N(c1cccc(F)c1)C1(C(=O)NC2CCCC2)CCCCCC1
target.under.test: IDH1 R132H (Homo sapiens, UniProt O75874, R132H)
IC50: 1 to 10 µM

compound: O=C(NC1CCCCC1)C(c1ccccc1Cl)N(C(=O)c1ccccn1)c1cccc(F)c1 (stereo not drawn)
target.under.test: IDH1 R132H (Homo sapiens, UniProt O75874, R132H)
IC50: 0.1 to 1 µM

Please look at the following compound next.
// query Record lookup: for IDH1 R132H (Homo sapiens, UniProt O75874, R132H), what IC50 belongs to Cc1cccc(N(C(=O)Cc2cccs2)C(C(=O)NC2CCCCC2)c2ccccc2C)c1 (stereo not drawn) ?
// result ≤ 0.1 µM
